Entry source: patent US12252481B2

Target Of Assay: SARS-Cov-2 3CLpro (Severe acute respiratory syndrome coronavirus 2, UniProt P0DTD1)
Construct: 3CLpro and HRV3C was added using a Multidrop Combi
Experimental Protocol: biochemical
Test Parameters: read-out: SARS-Cov-2 IC50 (class)
pIC50: −log10 of the molar value.
// reported pIC50 for each item listed

# count of solved cases: 2
Exercise: What value of pIC50 has been recorded for this entry: `C#CC(C)(C)[C@H](NC(=O)C(F)(F)F)C(=O)N1C[C@H]2[C@@H]([C@H]1C(=O)N[C@H](C#N)C[C@@H]1CCNC1=O)[C@H]1C=C[C@@H]2C1`
Solution: > 7.70

Exercise: Item `CC(C)(C)[C@H](NC(=O)C(F)(F)F)C(=O)N1C[C@@H]2[C@H]3C[C@@H]([C@@H]2[C@H]1C(=O)N[C@H](C#N)C[C@@H]1CCNC1=O)C1(CC1)C3` has what recorded pIC50?
Solution: 6.70 to 7.70

Next:
Exercise: Fill blank: measured pIC50 of the compound CC(C)(C)[C@H](NC(=O)C(F)(F)F)C(=O)N1C[C@H]2[C@@H]([C@H]1C(=O)NC(C[C@@H]1CCNC1=O)C(=O)C(=O)NC1CC1)[C@H]1C=C[C@@H]2C1 (stereo partly drawn) is ____.
Solution: > 7.70

Exercise: // query pIC50 value for entry CC(C)(C)[C@H](NC(=O)C(F)(F)F)C(=O)N1C[C@H]2[C@@H]([C@H]1C(=O)N[C@H](C#N)CC1Cn3ncnc3NC1=O)[C@H]1C=C[C@@H]2C1 (stereo partly drawn)
Solution: > 7.70

Exercise: Need pIC50, item `CC(C)(C)[C@H](NC(=O)C(F)(F)F)C(=O)N1C[C@@]2(F)[C@@H]([C@H]1C(=O)N[C@H](C#N)C[C@@H]1CCNC1=O)[C@H]1C=C[C@@H]2C1`
Solution: > 7.70

Exercise: Fill blank: measured pIC50 of the compound CC(C)(C)[C@H](NC(=O)C(F)(F)F)C(=O)N1C[C@H]2[C@@H]([C@H]1C(=O)N[C@H](C#N)CC1CC3(COC3)NC1=O)[C@H]1C=C[C@@H]2C1 (stereo partly drawn) is ____.
Solution: > 7.70
